- EXPERIMENTAL PROTOCOL: in vivo
- MEASUREMENT PARAMETERS: mouse, po
TEST READOUT: AUC(0-t) (ng·h/mL)

COMPOUND	TEST READOUT	MEASURED RESULT
O=C(O)c1ccc(CN2CCC(CN[C@@H]3C[C@H]3c3ccccc3)CC2)cc1 [GSK-2879552]	AUC(0-t)	5350

----------
- EXPERIMENTAL PROTOCOL: Pharmacokinetic experiment in mouse
- MEASUREMENT PARAMETERS: plasma, iv, 10 mg/kg
Here the recorded half-life is given for each entry.
TEST READOUT: half-life (min)

COMPOUND	TEST READOUT	MEASURED RESULT
FC1(CN[C@@H]2C[C@H]2c2ccccc2)CCNCC1 (relative stereo)	half-life	283
O=C(OCC1CCN(Cc2ccccc2)CC1)N1CCC(F)(CN[C@@H]2C[C@H]2c2ccccc2)CC1 [(1R,2S)-A90]	half-life	194
O=C(OCC1CCN(Cc2ccccc2)CC1)N1CCC(F)(CN[C@@H]2C[C@H]2c2ccccc2)CC1 (relative stereo) [Example A90]	half-life	239
O=C(OCc1ccccc1)N1CCC(F)(CNC2CC2c2ccccc2)CC1 (centres unmarked)	half-life	203
N[C@H]1CC[C@](F)(CNC2CC2c2ccccc2)CC1 (some centres unmarked)	half-life	403
